Give measured % Inhibition of DON/AcDON at 50 μM for each item. Keep answers brief.
- System: Fusarium graminearum
- Format: cell-based
- setup conditions: 50 μM; 7 days at 28° C.
Dear colleague, please send the value followed by its unit.

Tell me its % Inhibition of DON/AcDON at 50 μM on Fusarium graminearum: CC1(Cn2cc(-c3ccncc3)c(-c3ccc(Cl)s3)n2)CC1(Cl)Cl (stereo not shown) 93%

Lab note: Fusarium graminearum assay, enter % Inhibition of DON/AcDON at 50 μM for CCC(C)n1cc(-c2ccnc(NC(=O)N(C)C)c2)c(-c2ccc(Cl)s2)n1 (stereo not shown) here 99%

Write down the reported % Inhibition of DON/AcDON at 50 μM (system: Fusarium graminearum) of CCC(=O)Nc1cc(-c2cn(CC(C)C)nc2-c2ccc(Cl)s2)ccn1 100%

State % Inhibition of DON/AcDON at 50 μM on Fusarium graminearum. Entry: Fc1ccc(-c2nn(CC(F)F)cc2-c2ccncc2)s1 99%

Find the measured % Inhibition of DON/AcDON at 50 μM of CC(=O)Nc1cc(-c2cn(C)nc2-c2ccc(Cl)s2)ccn1 with Fusarium graminearum as test system. 99%

Consider the compound CCC(C)n1cc(-c2ccnc(NC(=O)C3CC3)c2)c(-c2ccc(Cl)s2)n1 (stereo not shown) tested on Fusarium graminearum; state its % Inhibition of DON/AcDON at 50 μM. 99%

Give % Inhibition of DON/AcDON at 50 μM for CCC(C)C(=O)Nc1cc(-c2cn(C(C)C)nc2-c2ccc(Cl)s2)ccn1 (stereo not shown) tested on Fusarium graminearum. 99%

State, for Fusarium graminearum, measured % Inhibition of DON/AcDON at 50 μM of the compound listed here: CC(C)Cn1cc(-c2ccncc2)c(-c2cccs2)n1 100%

Report value only: % Inhibition of DON/AcDON at 50 μM, Fusarium graminearum, CC(=O)N(C(C)=O)c1cc(-c2cn(C)nc2-c2ccc(Cl)s2)ccn1 100%

Fill: % Inhibition of DON/AcDON at 50 μM (Fusarium graminearum) for this compound CC(C)n1ncc(-c2ccncc2)c1-c1ccc(F)s1 100%

###

- procedure summary: physchem
- setup conditions: pH 2.7
Kindly supply the reported log p values for the records listed here.
Quick one: just the number, no unit, thanks!

Note down log p recorded for CCn1nccc1-c1cc(Br)cs1 2.92

Name the recorded log p of the item O=C(Cc1ccnc(Cl)c1)c1ccc(Cl)s1 in your answer. 2.94

Give the reported value of log p for this record: CCn1ccc(-c2cc(Br)cs2)n1 3.04

###

For each record, write down the corresponding log p.
- setup conditions: pH 2.7
Marks after values point to notes of the source that are not given here.

Return log p (reported value) for this compound: CSc1ccc(-c2nn(C(C)C)cc2-c2ccncc2)s1 1.79^[b]

Please report log p for the following compound: CC(C)Cn1cc(-c2ccncc2)c(-c2ccc(Br)s2)n1 2.1^[b]

Answer with the recorded log p of CCC(C)n1cc(-c2ccnc(NC(=O)[C@H](C)O)c2)c(-c2ccc(Cl)s2)n1 (stereo partly shown) only. 3.13^[b]

Consider the compound Clc1ccc(-c2nn(CC3CCCO3)cc2-c2ccncc2)s1 (stereo not shown) . State its measured log p. 1.6^[b]

Give recorded log p. CCC(C)n1cc(-c2ccnc(NC(=O)COC)c2)c(-c2ccc(Cl)s2)n1 (stereo not shown) 3.68^[b]

Please look at this compound and report its log p: CC(C)Cn1cc(-c2ccncc2)c(-c2ccc(Cl)s2)n1 2.08^[b]

Identify measured log p corresponding to CCC(C)n1nc(-c2ccc(Cl)s2)c(-c2ccncc2)c1Cl (stereo not shown) 3.44^[b]
